- System: Klebsiella oxytoca
- run description: Antimicrobial activity against extended-spectrum beta-lactamase-positive Klebsiella oxytoca assessed as percent susceptible isolates by agar dilution method
- Type: functional
Measured Activity of individual entries
Please respond with the number in % and leave the unit unwritten.

Reference set, count: 9
- CO/N=C(\C(=O)N[C@@H]1C(=O)N2C(C(=O)O)=C(CSc3nc(=O)c(O)nn3C)CS[C@H]12)c1csc(N)n1 [CEFTRIAXONE]: 89
- CO/N=C(\C(=O)N[C@@H]1C(=O)N2C(C(=O)[O-])=C(C[N+]3(C)CCCC3)CS[C@H]12)c1csc(N)n1: 96
- C[C@H]1COc2c(N3CCN(C)CC3)c(F)cc3c(=O)c(C(=O)O)cn1c23.C[C@H]1COc2c(N3CCN(C)CC3)c(F)cc3c(=O)c(C(=O)O)cn1c23.O [LEVOFLOXACIN]: 100
- C[C@@H](O)[C@H]1C(=O)N2C(C(=O)O)=C(S[C@@H]3CN[C@H](C(=O)Nc4cccc(C(=O)O)c4)C3)[C@H](C)[C@H]12: 100
- CC(C)(O/N=C(\C(=O)N[C@@H]1C(=O)N2C(C(=O)[O-])=C(C[n+]3ccccc3)CS[C@H]12)c1csc(N)n1)C(=O)O [CEFTAZIDIME]: 96
- NCC[C@H](O)C(=O)N[C@@H]1C[C@H](N)[C@@H](O[C@H]2O[C@H](CN)[C@@H](O)[C@H](O)[C@H]2O)[C@H](O)[C@H]1O[C@H]1O[C@H](CO)[C@@H](O)[C@H](N)[C@H]1O [AMIKACIN]: 100
- CO[C@@]1(NC(=O)Cc2cccs2)C(=O)N2C(C(=O)O)=C(COC(N)=O)CS[C@@H]21 [CEFOXITIN]: 96
- O=C(O)c1cn(C2CC2)c2cc(N3CCNCC3)c(F)cc2c1=O [CIPROFLOXACIN]: 96
- CO/N=C(\C(=O)N[C@@H]1C(=O)N2C(C(=O)O)=C(COC(C)=O)CS[C@H]12)c1csc(N)n1 [CEFOTAXIME]: 96

Give Activity for this entry on Klebsiella oxytoca: C[C@@H](O)[C@H]1C(=O)N2C(C(=O)O)=C(SCCNC=N)C[C@H]12 [IMIPENEM ANHYDROUS] 100

* * *

- Test system: Stenotrophomonas maltophilia
- run description: Antimicrobial activity against Stenotrophomonas maltophilia assessed as percent susceptible isolates by agar dilution method
- Assay type: functional
reported metric: Activity (%)
Please respond with the number in % and leave the unit unwritten.

Reference set, count: 2
* CO/N=C(\C(=O)N[C@@H]1C(=O)N2C(C(=O)O)=C(COC(C)=O)CS[C@H]12)c1csc(N)n1 | 8
* CC(C)(O/N=C(\C(=O)N[C@@H]1C(=O)N2C(C(=O)[O-])=C(C[n+]3ccccc3)CS[C@H]12)c1csc(N)n1)C(=O)O | 32

# next compound below
Find the measured Activity of NCC[C@H](O)C(=O)N[C@@H]1C[C@H](N)[C@@H](O[C@H]2O[C@H](CN)[C@@H](O)[C@H](O)[C@H]2O)[C@H](O)[C@H]1O[C@H]1O[C@H](CO)[C@@H](O)[C@H](N)[C@H]1O and report it. 31

* * *

- Tested on: Klebsiella pneumoniae
- run description: Antimicrobial activity against Klebsiella pneumoniae assessed as percent susceptible isolates by agar dilution method
- Type: functional
Measured Activity of individual entries
Please respond with the number in % and leave the unit unwritten.

Reference set, count: 5
* CC(C)(O/N=C(\C(=O)N[C@@H]1C(=O)N2C(C(=O)[O-])=C(C[n+]3ccccc3)CS[C@H]12)c1csc(N)n1)C(=O)O [CEFTAZIDIME] | 86
* CO/N=C(\C(=O)N[C@@H]1C(=O)N2C(C(=O)O)=C(COC(C)=O)CS[C@H]12)c1csc(N)n1 [CEFOTAXIME] | 85
* C[C@H]1COc2c(N3CCN(C)CC3)c(F)cc3c(=O)c(C(=O)O)cn1c23.C[C@H]1COc2c(N3CCN(C)CC3)c(F)cc3c(=O)c(C(=O)O)cn1c23.O [LEVOFLOXACIN] | 84
* CO[C@@]1(NC(=O)Cc2cccs2)C(=O)N2C(C(=O)O)=C(COC(N)=O)CS[C@@H]21 [CEFOXITIN] | 84
* CO/N=C(\C(=O)N[C@@H]1C(=O)N2C(C(=O)[O-])=C(C[N+]3(C)CCCC3)CS[C@H]12)c1csc(N)n1 | 91

Find the measured Activity of O=C(O)c1cn(C2CC2)c2cc(N3CCNCC3)c(F)cc2c1=O [CIPROFLOXACIN] and report it. 80

Find the measured Activity of C[C@@H](O)[C@H]1C(=O)N2C(C(=O)O)=C(S[C@@H]3CN[C@H](C(=O)Nc4cccc(C(=O)O)c4)C3)[C@H](C)[C@H]12 and report it. 96

Find the measured Activity of CO/N=C(\C(=O)N[C@@H]1C(=O)N2C(C(=O)O)=C(CSc3nc(=O)c(O)nn3C)CS[C@H]12)c1csc(N)n1 [CEFTRIAXONE] and report it. 85

Find the measured Activity of NCC[C@H](O)C(=O)N[C@@H]1C[C@H](N)[C@@H](O[C@H]2O[C@H](CN)[C@@H](O)[C@H](O)[C@H]2O)[C@H](O)[C@H]1O[C@H]1O[C@H](CO)[C@@H](O)[C@H](N)[C@H]1O [AMIKACIN] and report it. 95

Find the measured Activity of C[C@@H](O)[C@H]1C(=O)N2C(C(=O)O)=C(SCCNC=N)C[C@H]12 [IMIPENEM ANHYDROUS] and report it. 99
